# TARGET OR TEST SYSTEM: JAK2 (Homo sapiens)
# Construct: purchased Carna Biosciences, Inc
# Sequence (O60674 whole entry): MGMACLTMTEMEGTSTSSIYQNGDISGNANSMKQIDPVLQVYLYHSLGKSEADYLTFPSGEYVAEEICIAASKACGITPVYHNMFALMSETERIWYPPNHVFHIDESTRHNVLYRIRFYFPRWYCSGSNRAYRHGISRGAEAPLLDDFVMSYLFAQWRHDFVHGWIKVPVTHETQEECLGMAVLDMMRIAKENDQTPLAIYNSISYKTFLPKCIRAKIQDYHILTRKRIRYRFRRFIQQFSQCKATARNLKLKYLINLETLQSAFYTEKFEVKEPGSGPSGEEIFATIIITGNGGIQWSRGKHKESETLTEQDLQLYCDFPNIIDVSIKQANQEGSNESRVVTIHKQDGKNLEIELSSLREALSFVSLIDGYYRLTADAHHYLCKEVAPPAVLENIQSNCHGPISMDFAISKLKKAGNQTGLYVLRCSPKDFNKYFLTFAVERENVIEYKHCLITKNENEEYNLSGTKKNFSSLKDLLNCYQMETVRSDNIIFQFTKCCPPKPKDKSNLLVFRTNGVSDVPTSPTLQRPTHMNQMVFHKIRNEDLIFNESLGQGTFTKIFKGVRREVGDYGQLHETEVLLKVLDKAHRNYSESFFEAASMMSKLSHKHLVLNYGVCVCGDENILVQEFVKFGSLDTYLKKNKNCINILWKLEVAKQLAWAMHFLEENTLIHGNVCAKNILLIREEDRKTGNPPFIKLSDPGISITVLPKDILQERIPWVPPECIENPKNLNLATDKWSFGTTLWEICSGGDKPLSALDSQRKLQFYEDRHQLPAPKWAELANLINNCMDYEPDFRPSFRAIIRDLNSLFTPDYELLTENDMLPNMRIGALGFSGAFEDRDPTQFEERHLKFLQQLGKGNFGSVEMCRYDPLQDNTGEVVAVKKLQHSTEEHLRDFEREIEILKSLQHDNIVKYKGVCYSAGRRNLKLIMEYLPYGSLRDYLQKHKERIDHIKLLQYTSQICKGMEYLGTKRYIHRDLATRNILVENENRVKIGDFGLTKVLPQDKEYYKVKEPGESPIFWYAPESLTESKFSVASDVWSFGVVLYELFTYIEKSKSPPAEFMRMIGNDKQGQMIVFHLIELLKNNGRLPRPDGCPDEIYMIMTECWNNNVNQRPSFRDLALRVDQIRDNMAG
# ASSAY EXPLANATION: JAK tyrosine kinase inhibitory activity in the presence of 1 mM ATP (ELISA), JAK2
# Type: biochemical
Where a name gives a salt, the structure may show the parent alone.
Rule for this label: Met means IC50 is less than 2000 nM; Not met means IC50 is at least 2000 nM.

C[C@H](Nc1cc(C(=O)N2CCC(NC(=O)c3cccs3)CC2)nc(-c2cnn3ccsc23)n1)C1CC1 : Met
COC(=O)NC1CCN(C(=O)c2cc(N[C@@H]3CCN(C(=O)OC(C)(C)C)C3)nc(-c3cnn4ccsc34)n2)CC1 : Not met
C[C@@H](Nc1cc(C(=O)N2CCC(O)CC2)nc(-c2cnn3ccsc23)n1)C(C)(C)C [Example 62, hydrochloride] : Met
COC(=O)NC1CCN(C(=O)c2cc(NC(C)(C)C)nc(-c3cnn4ccsc34)n2)CC1 : Not met
C[C@H](Nc1cc(C(=O)N2CCC(NC(=O)OCC(F)F)CC2)nc(-c2cnn3ccsc23)n1)C1CC1 : Met
C[C@@H](Nc1cc(C(=O)N2CCC(NC(=O)OCCN(C)C)CC2)nc(-c2cnn3ccsc23)n1)C(C)(C)C : Met
COC(=O)NC1CCN(C(=O)c2cc(N[C@@H]3CCN(C(=O)C4CCC4)C3)nc(-c3cnn4ccsc34)n2)CC1 : Not met
CC(C)OC(=O)NC1CCN(C(=O)c2cc(N[C@H](C)C(C)(C)C)nc(-c3cnn4ccsc34)n2)CC1 : Met
CCCC(=O)N1CC[C@@H](Nc2cc(C(=O)N3CCC(NC(=O)OC)CC3)nc(-c3cnn4ccsc34)n2)C1 : Not met
CC(C)(C)[C@@H](CO)Nc1cc(C(=O)N2CCC(NC(=O)C3CC3)CC2)nc(-c2cnn3ccsc23)n1 : Not met
CC(C)(C)OC(=O)N1CCC(Nc2cc(C(=O)N3CCC(NC(=O)C4CC4)CC3)nc(-c3cnn4ccsc34)n2)CC1 : Not met
N#CC1(Nc2cc(C(=O)N3CCC(O)CC3)nc(-c3cnn4ccsc34)n2)CC1 [Example 117, hydrochloride] : Not met
CCC(=O)NC1CCN(C(=O)c2cc(OCC(CC)CC)nc(-c3cnn4ccsc34)n2)CC1 : Met
CCC(=O)NC1CCN(C(=O)c2cc(N[C@@H]3CCN(C(=O)CC#N)C3)nc(-c3cnn4ccsc34)n2)CC1 : Not met
CCC(CC)Nc1cc(C(=O)N2CCC(NC(=O)C3CC3)CC2)nc(-c2cnn3ccsc23)n1 : Met
O=C(NC1CCN(C(=O)c2cc(NCC3(COC(F)F)CC3)nc(-c3cnn4ccsc34)n2)CC1)C1CC1 : Not met
COC(=O)NC1CCN(C(=O)c2cc(N[C@@H]3CCNC3)nc(-c3cnn4ccsc34)n2)CC1 [Example 150, dihydrochloride] : Not met
CC(Nc1cc(C(=O)N2CCC(NC(=O)C3CC3)CC2)nc(-c2cnn3ccsc23)n1)c1ccncc1 (stereo not drawn) : Not met
COC(=O)NC1CCN(C(=O)c2cc(N[C@H]3CC[C@H](O)CC3)nc(-c3cnn4ccsc34)n2)CC1 : Not met
COC(=O)NC1CCN(C(=O)c2nc(-c3cnn4ccsc34)nc(N[C@H](C)C(C)(C)C)c2OC)CC1 : Met
CC(C)(C)CNc1cc(C(=O)N2CCC(NC(=O)C3CC3)CC2)nc(-c2cnn3ccsc23)n1 : Not met
COC(=O)NC1CCN(C(=O)c2cc(NC(C)c3ccncc3)nc(-c3cnn4ccsc34)n2)CC1 (stereo not drawn) : Not met
COCCOC(=O)NC1CCN(C(=O)c2cc(N[C@H](C)C(C)(C)C)nc(-c3cnn4ccsc34)n2)CC1 : Met
COC(=O)NC1CCN(C(=O)c2cc(N[C@H]3CCN(C(=O)OC(C)(C)C)C3)nc(-c3cnn4ccsc34)n2)CC1 : Not met
C[C@H](Nc1cc(C(=O)N2CCC(NC(=O)C3CC3)CC2)nc(-c2cnn3ccsc23)n1)C(C)(C)C : Met
COC(=O)NC1CCN(C(=O)c2cc(N[C@@H]3CCN(C(=O)C4CC4)C3)nc(-c3cnn4ccsc34)n2)CC1 : Not met
CCOC(=O)NC1CCN(C(=O)c2cc(N[C@H](C)C3CC3)nc(-c3cnn4ccsc34)n2)CC1 [Example 74, hydrochloride] : Not met
O=C(NC1CCN(C(=O)c2cc(NCc3cccs3)nc(-c3cnn4ccsc34)n2)CC1)C1CC1 : Not met
O=C(NC1CCN(C(=O)c2cc(N[C@H]3CCC[C@@H]3OC(F)F)nc(-c3cnn4ccsc34)n2)CC1)C1CC1 : Met
COC(=O)NC1CCN(C(=O)c2cc(NC3CCN(S(C)(=O)=O)CC3)nc(-c3cnn4ccsc34)n2)CC1 : Not met
